# PMNs % Free Acid Phosphatase Activity, pH5 per entry
# System: Acid phosphatase
# experiment: Lysosomal free acid phosphatase activity, PMNs
# Assay type: cell-based
# recorded.conditions: 5 μmoles, in vitro; 60 min
observable: PMNs % Free Acid Phosphatase Activity, pH5 (% Control)

[BH3-][N+](C)(C)C
57
[BH3-][NH+](C)C
82
[BH3-][NH+]1CCOCC1
79
N#C[BH2-][NH2+]CC[NH2+][BH2-]C#N
100
C[N+](C)(C)[BH2-]C#N
35

---

# Tested on: CF1 male mice
# experiment: Writhing reflex (acetic acid)
# Assay type: in vivo
# recorded.conditions: text summary of Table II
Recorded inhibition of the writhing reflex, one value per entry.
observable: inhibition of the writhing reflex (%)

C[N+](C)(C)[BH2-]C#N
80
[BH3-][NH+]1CCOCC1
80
C[NH+](C)[BH2-]C#N
70
CCNC(=O)[BH2-][N+](C)(C)C
70
C[N+](C)(C)[BH2-]C(=O)O
70

---

# experiment: in vivo
# recorded.conditions: mouse
observable: LD50 (mg/kg)

C[N+]1([BH2-]C#N)CCOCC1 [XIV, O(CH2 CH2)2 N(CH3).BH2 CN]
23
N#C[BH2-][NH3+] [XVII, ammonia-cyanoborane]
30
C[N+](C)(C)[BH2-]I [IX, (CH3)3 N.BH 2 I]
250
[BH3-][NH2+]C(C)(C)C [Compound I, (CH3)3 CNH2.BH3]
16
C[N+](C)([BH2-]C#N)CC[N+](C)(C)[BH2-]C#N [XI]
200
[BH3-][NH+](C)C [IV, (CH3)2 NH.BH3]
200
N#C[BH2-][n+]1ccccc1 [XV, pyridinecyanoborane]
25

---

The reader will find reported Liver % Free Cathepsin Activity, pH5 values listed item by item below.
# Test system: Cathepsin
# experiment: Lysosomal free cathepsin activity, liver homogenate
# Type: biochemical, rats
# recorded.conditions: 5 μmoles, in vitro; 20 min
observable: Liver % Free Cathepsin Activity, pH5

[BH3-][NH+](C)C
67 ± 3 % Control
N#C[BH2-][NH3+]
48 ± 6 % Control
C[N+](C)([BH2-]C#N)CC[N+](C)(C)[BH2-]C#N
50 ± 7 % Control
[BH3-][NH+]1CCOCC1
107 ± 6 % Control
C[N+](C)(C)[BH2-]C#N
0 ± 2 % Control
[BH3-][NH2+]C(C)(C)C
58 ± 5 % Control
C[N+](C)(C)[BH2-]C(=O)O
56 ± 6 % Control
C[N+]1([BH2-]C#N)CCOCC1
13 ± 5 % Control
C[N+](C)([BH2-]C(=O)O)CC[N+](C)(C)[BH2-]C(=O)O
23 ± 6 % Control
C[N+](C)(C)[BH2-]I
14 ± 3 % Control
O=C(O)[BH2-][n+]1ccccc1
58 ± 4 % Control
C[NH+](C)[BH2-]C#N
32 ± 5 % Control
[BH3-][N+](C)(C)C
17 ± 4 % Control
COc1ccc2c(c1)c(CC(=O)O)c(C)n2C(=O)c1ccc(Cl)cc1 [Indomethacin, reference compound]
67 ± 6 % Control
N#C[BH2-][n+]1ccccc1
57 ± 4 % Control
N#C[BH2-][NH2+]CC[NH2+][BH2-]C#N
80 ± 7 % Control

---

Reported PMNs % Free Acid Phosphatase Activity, pH5 is given for each of the following compounds.
# Test system: Acid phosphatase
# experiment: Lysosomal free acid phosphatase activity, PMNs
# Assay type: cell-based
# recorded.conditions: 5 μmoles, in vitro; 60 min
observable: PMNs % Free Acid Phosphatase Activity, pH5 (% Control)

[BH3-][NH2+]C(C)(C)C [Compound I, (CH3)3 CNH2.BH3]
100
COc1ccc2c(c1)c(CC(=O)O)c(C)n2C(=O)c1ccc(Cl)cc1 [Indomethacin, reference compound]
100
CCNC(=O)[BH2-][N+](C)(C)C [VII, (CH3)3 N.BH2 CON(H)CH2 CH3]
100
O=C(O)[BH2-][n+]1ccccc1 [XVI, Pyridine-carboxyborane]
100
C[NH+](C)[BH2-]C#N [VI, (CH3)2 NH.BH2 CN]
89
CCNC(=O)[BH2-][N+](C)(C)CC[N+](C)(C)[BH2-]C(=O)NCC [XIII]
100
C[N+]1([BH2-]C#N)CCOCC1 [XIV, O(CH2 CH2)2 N(CH3).BH2 CN]
50
N#C[BH2-][n+]1ccccc1 [XV, pyridinecyanoborane]
57
C[N+](C)(C)[BH2-]C(=O)O [VIII, trimethylamine-carboxyborane]
50

---

Items are presented alongside their recorded LD50.
# experiment: in vivo
# recorded.conditions: mouse
observable: LD50 (mg/kg)

[BH3-][N+](C)(C)C
740
C[NH+](C)[BH2-]C#N
39
CCNC(=O)[BH2-][N+](C)(C)C
320

---

# Test system: carrageenan induced edema in mouse foot pads
# experiment: Anti-inflammatory screen (carrageenan induced foot edema)
# Format: in vivo, mice
# recorded.conditions: 10 mg/kg × 2 intraperitoneally, mice
Measured Anti-inflammatory Screen, listed per entry.
observable: Anti-inflammatory Screen (% Control)

C[N+](C)([BH2-]C#N)CC[N+](C)(C)[BH2-]C#N [XI]
95
C[NH+](C)[BH2-]C#N [VI, (CH3)2 NH.BH2 CN]
49
[BH3-][NH2+]C(C)(C)C [Compound I, (CH3)3 CNH2.BH3]
41
CCOC(=O)[BH2-][N+](C)(C)C [XVIII, (CH3)3 N.BH2 COOCH2 CH3]
87
[BH3-][NH+]1CCOCC1 [Compound II, O(CH2 CH2)2 NH.BH3]
55

---

# Test system: Acid phosphatase
# experiment: Lysosomal free acid phosphatase activity, liver homogenate
# Format: biochemical, rats
# recorded.conditions: 5 μmoles, in vitro; 20 min
Liver % Free Acid Phosphatase Activity, pH5 values, listed per item
observable: Liver % Free Acid Phosphatase Activity, pH5 (% Control)

CCNC(=O)[BH2-][N+](C)(C)CC[N+](C)(C)[BH2-]C(=O)NCC
74
C[N+](C)([BH2-]C(=O)O)CC[N+](C)(C)[BH2-]C(=O)O
69
O=C(O)[BH2-][n+]1ccccc1
77
COc1ccc2c(c1)c(CC(=O)O)c(C)n2C(=O)c1ccc(Cl)cc1 [Indomethacin, reference compound]
86
[BH3-][NH+](C)C
82
N#C[BH2-][NH3+]
75
C[N+]1([BH2-]C#N)CCOCC1
68
C[N+](C)(C)[BH2-]I
71
C[NH+](C)[BH2-]C#N
73
[BH3-][NH+]1CCOCC1
75
N#C[BH2-][n+]1ccccc1
79
C[N+](C)([BH2-]C#N)CC[N+](C)(C)[BH2-]C#N
80
[BH3-][NH2+]C(C)(C)C
77
N#C[BH2-][NH2+]CC[NH2+][BH2-]C#N
77
[BH3-][N+](C)(C)C
72
CCNC(=O)[BH2-][N+](C)(C)C
78
C[N+](C)(C)[BH2-]C#N
69
C[N+](C)(C)[BH2-]C(=O)O
82

---

# Test system: carrageenan induced edema in mouse foot pads
# experiment: Anti-inflammatory screen (carrageenan induced foot edema)
# Type: in vivo, mice
# recorded.conditions: 10 mg/kg × 2 intraperitoneally, mice
Class MET: Anti-inflammatory Screen at least 60 % Control. Class NOT MET: Anti-inflammatory Screen below 60 % Control.

C[N+](C)(C)[BH2-]C#N
NOT MET
C[N+](C)(C)[BH2-]C(=O)O
MET
N#C[BH2-][NH3+]
NOT MET
[BH3-][NH+](C)C
MET
C[N+](C)(C)[BH2-]I
MET
C[N+](C)([BH2-]C(=O)O)CC[N+](C)(C)[BH2-]C(=O)O
NOT MET
CCNC(=O)[BH2-][N+](C)(C)CC[N+](C)(C)[BH2-]C(=O)NCC
MET
CCNC(=O)[BH2-][N+](C)(C)C
MET
N#C[BH2-][NH2+]CC[NH2+][BH2-]C#N
MET
[BH3-][N+](C)(C)C
MET

---

Listed next: entries and their corresponding LD50.
# experiment: in vivo
# recorded.conditions: mouse
observable: LD50

N#C[BH2-][NH2+]CC[NH2+][BH2-]C#N
> 150 mg/kg
CCOC(=O)[BH2-][N+](C)(C)C
> 500 mg/kg
C[N+](C)([BH2-]C(=O)O)CC[N+](C)(C)[BH2-]C(=O)O
> 1000 mg/kg
